Test system: CP262
Assay: qHTS profiling for inhibitors of Plasmodium falciparum proliferation (AID 504749); further: nearly all actives have a fitted effect of over 60% in size
Settings: P. falciparum in erythrocytes, SYBR Green DNA, 72 h; series mostly up to 28.7 µM
Records with an inconclusive call do not appear. The source made the active and inactive calls. The call rests on the fitted dose curve; in most records, active means well fitted inhibition curve with a large enough effect; inconclusive means small, poorly fitted or top-dose-only effect; inactive means flat fitted curve, though single readings scatter.
Possible outcomes: 1 = active, 0 = inactive

molecule	discrete.label
C=CCN1CCc2nc(N)sc2CC1	0
C#C[C@]1(O)CC[C@H]2[C@@H]3CCC4=CC(=O)CC[C@@H]4[C@H]3CC[C@@]21CC	0
O=C(NC1CCN(CCc2c[nH]c3ccccc23)CC1)c1ccccc1	0
Cl/C(=C\n1cncn1)c1ccc(Cl)cc1Cl	0
CCOC(=O)[C@H](CCc1ccccc1)N[C@@H](C)C(=O)N1[C@H](C(=O)O)C[C@H]2CCCC[C@@H]21	0
CCN(CC)CCOc1ccc2c(c1)C(=O)c1cc(OCCN(CC)CC)ccc1-2	0
CC(=O)NCCCCCC(=O)O	0
Cc1c[nH]c2ccccc12	0
CC(=O)NO	0
O=C(CCN1CCN2CCCC2C1)N1c2ccccc2Sc2ccc(Cl)cc21 (stereo unspecified)	0
CCCCc1cc2ccccc2c(OCCN(C)C)n1	0
CCOc1ccccc1OCCN[C@H](C)Cc1ccc(OC)c(S(N)(=O)=O)c1	0
CCCCCCCCCCCCSCCOCCO	0
CCCCCCCCCCCCCC[N+](C)(C)Cc1ccccc1	1
CCC(CC)(CC(=O)Nc1cccc(/C=C/c2nc(C3CCC3)cs2)c1)C(=O)O	0
Nc1nc(N)c(-c2ccccc2)s1	0
C#C[C@]1(OC(C)=O)CC[C@H]2[C@@H]3CCC4=C/C(=N/O)CC[C@@H]4[C@H]3CC[C@@]21CC	0
Cc1cccc(C)c1NC(=O)CN1CCCC1	0
COc1ccc(C(Cl)=C(c2ccc(OC)cc2)c2ccc(OC)cc2)cc1	0
c1ccc(CC2=NCCN2)cc1	0
NCCNc1cccc2ccccc12	0
NC(=O)c1ccccc1O	0
CC(=O)Oc1ccc(C)cc1	0
CCCCC(CC)COC(=O)/C=C/c1ccc(OC)cc1 (stereo unspecified)	0
CN(C)C(=O)Nc1ccc(Cl)c(Cl)c1	0
CC[C@H](c1ccc(O)cc1)[C@@H](CC)c1ccc(O)cc1	0
